- System: SF-539 CNS
- assayInfo: NCI-60 one-dose screen, 48 h (100 = growth as untreated, 0 = no growth, -100 = all killed)
- conditionInfo: 10 µM unless noted
About 83,000 compounds went through this panel and 20% of them were active in at least one assay; those are over-represented in the sample as a whole.
Provide the recorded growth for the entries that follow.
State the answer as a number, implicitly in %.

INPUT: Which growth value is on record for COc1cc(C2NC(c3cc(OC)c(OC)c(OC)c3)C(C#N)(C#N)C2(C#N)C#N)cc(OC)c1OC (stereo unspecified) ?
OUTPUT: 95.8

INPUT: Sample `COc1ccc(C(=O)c2cc3c(N)c(C(=O)Nc4cccc(OC)c4)sc3nc2C)cc1` — what was its growth?
OUTPUT: -16.3

INPUT: Could you tell me which growth is on file for `N#Cc1c(Nc2ccccc2)nn2cc(-c3nc4ccccc4s3)c(N)nc12` ?
OUTPUT: 58

INPUT: Any idea what growth was measured for `COc1ccccc1Nc1cc(O)c2c(=O)cc(-c3ccccc3)oc2c1` ?
OUTPUT: 28.3

INPUT: Fill in: growth of CC(=O)N1N=C(c2cccc(Nc3ccncc3)c2)CC1c1ccccc1 (stereo unspecified) is ___
OUTPUT: 80.9

INPUT: Which value of growth has been reported for `O=C(CCN1CCCC1)Nc1ccc2c(Nc3ccccc3)c3ccccc3nc2c1` in the records?
OUTPUT: -62.5

INPUT: Recorded growth of `COc1cc2nc(-c3ccc(C(F)(F)F)cc3)cc(OCCN3CCC(O)CC3)c2cc1OC` , please.
OUTPUT: 76.8

INPUT: Return reported growth; argument: `COc1cc(COC(=O)CCCCC[P+](c2ccccc2)(c2ccccc2)c2ccccc2)c(OC)c2c1OCO2`
OUTPUT: 78.2

INPUT: Recorded growth of `COc1ccc(C(=O)c2cc3c(N)c(C(=O)Nc4cccc(Br)c4C)sc3nc2C)cc1` , please.
OUTPUT: -15.3

INPUT: I'd like to know its growth. The compound in question is `Cc1ccccc1CNc1ccc(N2CCOCC2)cc1`
OUTPUT: 111

INPUT: Find the recorded growth belonging to `CC(C)CN(C(=O)c1ccc(Cl)cc1)c1c(N)n(CC(C)C)c(=O)[nH]c1=O` and report it.
OUTPUT: 43.7

INPUT: Please give the measured growth for this compound: `COc1cc2nc(-c3ccc(C(F)(F)F)cc3)cc(OCCCN3CCC(O)CC3)c2cc1OC`
OUTPUT: 45.5

INPUT: Sample COc1ccc(C2CC(c3cccc(Nc4ccncc4)c3)=NN2c2ccc(Cl)cc2)cc1 (stereo unspecified) — what was its growth?
OUTPUT: 76.4

INPUT: For `CN1CCN(c2c(F)cc(NC3=C(Cl)C(=O)c4ncccc4C3=O)cc2F)CC1` , what is its reported growth?
OUTPUT: 98.1

INPUT: Query: growth; subject: `Cc1ccc(C(c2c(O)c3cc(Br)ccc3[nH]c2=O)c2c(O)c3cc(Br)ccc3[nH]c2=O)cc1`
OUTPUT: 91.2

INPUT: What does the data say about its growth? Entry: COC(=O)C1=C(C(=O)ONCCN(C)C)C2C=CC1(C(Cc1ccccc1)Nc1ccc(F)cc1)O2 (stereo unspecified)
OUTPUT: 97.3
